# assay_system: Bcl-2 protein (histag-Bcl-2, UniProtKB P10415) (Homo sapiens (Human), UniProt P10415)
# Sequence (P10415 whole entry): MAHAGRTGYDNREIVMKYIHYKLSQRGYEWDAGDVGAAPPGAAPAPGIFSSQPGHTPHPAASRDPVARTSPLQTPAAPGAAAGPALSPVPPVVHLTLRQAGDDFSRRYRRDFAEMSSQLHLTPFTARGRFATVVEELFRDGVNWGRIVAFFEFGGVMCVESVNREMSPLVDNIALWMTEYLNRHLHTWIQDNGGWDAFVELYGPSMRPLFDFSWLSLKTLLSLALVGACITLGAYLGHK
# assay_method_text: Inhibition of Bcl-2 by the fluorescence polarisation technique
# Type: binding
# study_conditions: fluorescence polarisation test; method A, or method B where underlined (underlining not visible); read-out: IC50 (nM) Bcl-2 FP
Structures can show the parent of a compound that is named as a salt.
Mark Fulfilled for IC50 under 30 nM, Not fulfilled if at or over.

Worked examples follow.
- compound: "Cc1cc(C(=O)N(c2ccccc2)c2ccc(O)cc2)cn1-c1ccc(Br)cc1C(=O)N1Cc2ccccc2C[C@H]1CN1CCN(C)CC1 [Example 29]"
  assigned_class: "Not fulfilled"
- compound: "NC[C@@H]1Cc2ccccc2CN1C(=O)c1cc2c(cc1-n1nc(C(=O)N(c3ccccc3)c3ccccc3)c3ccccc31)OCO2 [Example 132]"
  assigned_class: "Not fulfilled"
- compound: "CN(C)c1ccc(-n2nc(C(=O)N(c3ccccc3)c3ccccc3)c3ccccc32)c(C(=O)N2Cc3ccccc3C[C@H]2CN)c1 [Example 141]"
  assigned_class: "Not fulfilled"
- compound: "NC[C@@H]1Cc2ccccc2CN1C(=O)c1cc(NCc2ccccc2)ccc1-n1nc(C(=O)N(c2ccccc2)c2ccccc2)c2ccccc21 [Example 142]"
  assigned_class: "Not fulfilled"
- compound: "CN1CCN(C[C@@H]2Cc3ccccc3CN2C(=O)c2ccc(Br)cc2-n2cc(C(=O)N(c3ccc(O)cc3)c3ccc(F)cc3)c3ccccc32)CC1 [Example 71]"
  assigned_class: "Fulfilled"

Could you now consider this next compound?
# input Decide: IC50 of Cc1cc(C(=O)N(c2ccc(O)cc2)c2ccc3c(ccn3C)c2)cn1-c1cc2c(cc1C(=O)N1Cc3ccccc3C[C@H]1CN1CCOCC1)CCC2 [Example 117, hydrochloride] strictly below 30 nM?
# output Fulfilled

###

Each entry below carries its recorded IC50.
# System: RS4;11 leukaemia tumour line
# assay_method_text: In vitro cytotoxicity, Microculture Tetrazolium Assay (MTT)
# Format: cell-based
# study_conditions: Homo sapiens; RS4;11 cells, 48 hours exposure
Counter-ions that a name gives are not always drawn.
Please reply with the bare figure in nM and do not write the unit itself.

- molecule: "Cc1cc(C(=O)N(c2ccc(O)cc2)c2ccc3c(c2)CN(C)C3)cn1-c1cc2c(cc1C(=O)N1Cc3ccccc3C[C@H]1C)OCO2 [Example 114, hydrochloride]"
  quantity_name: "IC50"
  readout_number: 726
- molecule: "Cc1ccc(N(C(=O)c2cn(-c3cc4c(cc3C(=O)N3Cc5ccccc5C[C@H]3CN3CCN(C)CC3)OCO4)c3ccccc23)c2ccc(O)c(Cl)c2)cc1 [Example 63, hydrochloride]"
  quantity_name: "IC50"
  readout_number: 1510

Documented IC50 of Cc1cc(C(=O)N(c2ccc(O)cc2)c2ccc3[nH]ccc3c2)cn1-c1cc(Br)ccc1C(=O)N1Cc2ccccc2C[C@H]1CN1CCN(C2CCCC2)CC1 [Example 80] : 120

###

Measured IC50, listed per entry for reference.
# Tested on: RS4;11 leukaemia tumour line
# assay_method_text: In vitro cytotoxicity, Microculture Tetrazolium Assay (MTT)
# Type: cell-based
# study_conditions: Homo sapiens; RS4;11 cells, 48 hours exposure
Where a name gives a salt, the structure may show the parent alone.
Your answer should be a plain number; it is taken to be in nM.

- molecule: "COc1ccc(C(=O)N2Cc3ccccc3C[C@H]2CN2CCN(C)CC2)c(-n2cc(C(=O)N(c3ccccc3)c3ccc(O)cc3)c3ccccc32)c1 [Example 168, dihydrochloride]"
  IC50 (nM): 188
- molecule: "Cc1c(C(=O)N(c2ccc(O)cc2)c2cnc3c(ccn3C)c2)cn(-c2cc(Cl)ccc2C(=O)N2Cc3ccccc3C[C@H]2CN2CCOCC2)c1C [Example 209, hydrochloride]"
  IC50 (nM): 62.9

Now consider the entry below.
The value of IC50 measured for the molecule `CN1CCN(C[C@@H]2Cc3ccccc3CN2C(=O)c2cc(NC(=O)CSc3ccccc3)ccc2-n2cc(C(=O)N(c3ccccc3)c3ccc(O)cc3)c3ccccc32)CC1` turned out to be 292

###

# assay_system: Bcl-2 protein (histag-Bcl-2, UniProtKB P10415) (Homo sapiens (Human), UniProt P10415)
# assay_method_text: Inhibition of Bcl-2 by the fluorescence polarisation technique
# Type: binding
# study_conditions: fluorescence polarisation test; method A, or method B where underlined (underlining not visible); read-out: IC50 (nM) Bcl-2 FP
Structures can show the parent of a compound that is named as a salt.
Exam item: assign rule met to entries whose IC50 is below 10 nM and rule not met to entries at or above 10 nM. Note that a value of exactly 10 nM receives rule not met.

- compound: "Cc1cc(C(=O)N(c2ccc(O)cc2)c2ccc3c(c2)CCN3)cn1-c1cc2c(cc1C(=O)N1Cc3ccccc3C[C@H]1CN1CCN(C)CC1)OCO2 [Example 103, hydrochloride]"
  assigned_class: "rule not met"
- compound: "Cc1cc(C(=O)N(c2ccccc2)c2ccc(O)cc2)cn1-c1cc(Br)ccc1C(=O)N1Cc2ccccc2C[C@H]1CN1C[C@H]2CCC[C@H]2C1"
  assigned_class: "rule not met"

# input Hello, is IC50 of the following compound strictly smaller than 10 nM? COc1cc(-n2cc(C(=O)N(c3ccccc3)c3ccccc3)c3ccccc32)c(C(=O)N2Cc3ccccc3C[C@H]2CN2CCN(C)CC2)cc1O [Example 181, dihydrochloride]
# output rule met

# input Strictly below 10 nM: is that where IC50 of `Cc1cc(C(=O)N(c2ccc(O)cc2)c2ccc3[nH]ccc3c2)cn1-c1cc(Br)ccc1C(=O)N1Cc2ccccc2C[C@H]1CN1CCCC1` sits?
# output rule not met

# input For this compound, is IC50 lower than 10 nM? `Cc1cc(C(=O)N(c2ccc(O)cc2)c2ccc3[nH]ccc3c2)cn1-c1cc(Cl)ccc1C(=O)N1Cc2ccccc2C[C@H]1CN1CCN(C)CC1`
# output rule met

# input In plain terms, does Cc1cc(C(=O)N(c2ccc(O)cc2)c2ccc3c(ccn3C)c2)cn1-c1cc(Cl)ccc1C(=O)N1Cc2ccccc2C[C@H]1CN(C)C [Example 95, hydrochloride] come in under 10 nM for IC50?
# output rule met

# input IC50 strictly < 10 nM for this compound? Cc1cc(C(=O)N(c2ccc(O)cc2)c2ccc3c(ccn3C)c2)cn1-c1cc2c(cc1C(=O)N1Cc3ccccc3C[C@H]1CN1CCOCC1)OCO2 [Example 109, hydrochloride]
# output rule met

# input Decide: IC50 of `Cc1cc(C(=O)N(c2ccccc2)c2ccc3[nH]ccc3c2)cn1-c1ccccc1C(=O)N1Cc2ccccc2C[C@H]1CN(C)C` strictly below 10 nM?
# output rule not met

# input Determine if `Cc1cc(C(=O)N(c2ccc(O)cc2)c2ccc(Cl)cc2)cn1-c1cc2c(cc1C(=O)N1Cc3ccccc3C[C@H]1CN1CCN(C)CC1)OCO2` shows IC50 strictly lower than 10 nM.
# output rule met

# input Determine whether this compound shows IC50 lower than 10 nM (ties excluded): `CN1CCN(C[C@@H]2Cc3ccccc3CN2C(=O)c2cc3c(cc2-n2cc(C(=O)N(c4ccccc4)c4ccc(O)cc4)c4ccccc42)OC(F)(F)O3)CC1`
# output rule not met

###

# assay_system: Bcl-2 protein (histag-Bcl-2, UniProtKB P10415) (Homo sapiens (Human), UniProt P10415)
# assay_method_text: Inhibition of Bcl-2 by the fluorescence polarisation technique
# Assay type: binding
# study_conditions: fluorescence polarisation test; method A, or method B where underlined (underlining not visible); read-out: IC50 (nM) Bcl-2 FP
Counter-ions that a name gives are not always drawn.
quantity_name: IC50
Answer with the figure and its unit, nothing else.

Recorded results for 5 compounds are shown here.
- compound: "CN1CCN(C[C@@H]2Cc3ccccc3CN2C(=O)c2cc3c(cc2-n2cc(C(=O)N(c4ccc(O)cc4)c4ccc5sccc5c4)c4ccccc42)OCO3)CC1"
  IC50: "7.2 nM"
- compound: "Cc1cc(C(=O)N(c2ccccc2)c2ccc(O)cc2)cn1-c1cc(Br)c(Br)cc1C(=O)N1Cc2ccccc2C[C@H]1CN1CCN(C)CC1"
  IC50: "29.6 nM"
- compound: "Cc1ccc(N(C(=O)c2cn(-c3cc4c(cc3C(=O)N3Cc5ccccc5C[C@H]3CN3CCN(C)CC3)OCO4)c3ccccc23)c2ccc(O)cc2)cc1F"
  IC50: "5.4 nM"
- compound: "CN1CCN(C[C@@H]2Cc3ccccc3CN2C(=O)c2cc(O)c(O)cc2-n2cc(C(=O)N(c3ccccc3)c3ccc(O)cc3)c3ccccc32)CC1"
  IC50: "8.3 nM"
- compound: "CN1CCN(C[C@@H]2Cc3ccccc3CN2C(=O)c2cc3c(cc2-n2cc(C(=O)N(c4ccc(O)cc4)c4ccc5occc5c4)c4ccccc42)OCO3)CC1"
  IC50: "6.8 nM"

For `Cc1cc(C(=O)N(c2ccc(O)cc2)c2ccc3[nH]ccc3c2)cn1-c1cc(Br)ccc1C(=O)N1Cc2ccccc2C[C@H]1CN1CCN(C)CC1` the compound record lists IC50 as 8.4 nM

Reported IC50 for COc1cc(-n2cc(C(=O)N(c3ccc(O)cc3)c3ccc(F)cc3)c3ccccc32)c(C(=O)N2Cc3ccccc3C[C@H]2CN2CCN(C)CC2)cc1O [Example 201, dihydrochloride] was 3.1 nM

Record `CN1CCN(C[C@@H]2Cc3ccccc3CN2C(=O)c2ccc(Cl)cc2-n2cc(C(=O)N(c3ccc(O)cc3)c3ccc(O)cc3)c3ccccc32)CC1` , field IC50: 3.9 nM

Please fill in: IC50 reported for `CN1CCN(C[C@@H]2Cc3ccccc3CN2C(=O)c2ccc(Cl)cc2-n2cc(C(=O)N(c3ccccc3)c3ccc(O)cc3)c3ccccc32)CC1` = 10.2 nM

Item: CN1CCN(C[C@@H]2Cc3ccccc3CN2C(=O)c2cc3c(cc2-n2cc(C(=O)N(c4ccc(O)cc4)c4cccc(Oc5ccccc5)c4)c4ccccc42)OCO3)CC1 [Example 39, hydrochloride] | IC50: 12.5 nM

Value of IC50 reported for the compound `Cc1cc(C(=O)N(c2ccc(O)cc2)c2ccc3[nH]ccc3c2)cn1-c1ccccc1C(=O)N1Cc2ccccc2C[C@H]1CN(C)C` is 26.1 nM

Sure, the documented IC50 for `COc1cc(-n2nc(C(=O)N(c3ccccc3)c3ccccc3)c3ccccc32)c(C(=O)N2Cc3ccccc3C[C@H]2CN)cc1O` is 10.4 nM

Notebook: `COc1cc(-n2nc(C(=O)N(c3ccccc3)c3ccccc3)c3ccccc32)c(C(=O)N2Cc3ccccc3C[C@H]2CN)cc1N` , IC50 read as 218 nM

Kindly note the recorded IC50 for COc1cc(-n2cc(C(=O)N(c3ccccc3)c3ccc(O)cc3)c3ccccc32)c(C(=O)N2Cc3ccccc3C[C@H]2CN2CCCCC2)cc1O [Example 176, hydrochloride] , which is 6.2 nM

Short answer for `Cc1cc(C(=O)N(c2ccc(O)cc2)c2ccc(F)cc2)cn1-c1cc(Cl)ccc1C(=O)N1Cc2ccccc2C[C@H]1CN1CCN(C)CC1` : IC50 was 6.6 nM

// recorded IC50 for `CN1CCN(C[C@@H]2Cc3ccccc3CN2C(=O)c2cc3c(cc2-n2cc(C(=O)N(c4ccc(O)cc4)c4ccc5[nH]ccc5c4)c4ccccc42)OCO3)CC1` : 3.8 nM

Reported IC50 ( Cc1c(C(=O)N(c2ccc(O)cc2)c2cc(C#N)n(C)c2C)cn(-c2cc(Cl)ccc2C(=O)N2Cc3ccccc3C[C@H]2CN2CCOCC2)c1C.Cl [Example 211, hydrochloride] ) = 3.7 nM

Looking up Cl.O=C(c1cn(-c2cc3c(cc2C(=O)N2Cc4ccccc4C[C@H]2CN2CCOCC2)OCO3)c2ccccc12)N(c1ccccc1)c1ccc(O)cc1 [Example 184, hydrochloride] , I see its IC50 listed as 14.1 nM

Entry Cc1cc(C(=O)N(c2ccc(O)cc2)c2ccc3c(ccn3C)c2)cn1-c1cc(Br)ccc1C(=O)N1Cc2ccccc2C[C@H]1CN1CCN(C)CC1 [Example 70, hydrochloride] ; IC50 = 2.9 nM
